Recorded measurements of inclusion score, one per entry
# assay_text: reducers of polyQ inclusions in PC12 cells, cell-based, NGF-treated PC12, GFPQ80 (AID 1614);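 note: lower means fewer inclusions and 0 means no inclusions at all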
# condition_details: PC12 NGF-treated GFP-polyQ80 inclusion reduction
Write no unit; give the number alone.

Below, 2 compounds whose answers are already recorded.
mol: O=C1CN=C(c2ccccc2Cl)c2cc([N+](=O)[O-])ccc2N1
inclusion score: 2
--
mol: CN(C)[C@@H]1C(=O)C(C(N)=O)=C(O)[C@@]2(O)C(=O)C3=C(O)c4c(O)ccc(Cl)c4[C@@](C)(O)[C@H]3C[C@@H]12
inclusion score: 0

// below: inclusion score requested for another compound
QUERY: // returns reported inclusion score for input `c1ccc2nc(N3CCNCC3)ccc2c1`
RESULT: 2

---

# assay_text: HCT116 colon cancer cell growth inhibition, primary screen, CellTiter-Glo luminescence, NPC library (AID 1117342)
# condition_details: at 20 µM (top of the series)
Classify: Fulfilled when inhibition of viability is strictly less than 10%; Not fulfilled when inhibition of viability is not.

compound: CCCOC(=O)c1cncn1C(C)c1ccccc1 (stereo unspecified)
label_value: Not fulfilled

QUERY: Check if inhibition of viability falls below 10% for `Cc1nnc2n1-c1sc(CCC(=O)N3CCOCC3)cc1C(c1ccccc1Cl)=NC2` .
RESULT: Not fulfilled

QUERY: Now give it for C[N+]1(C)[C@@H]2CC[C@H]1CC(OC(=O)C(CO)c1ccccc1)C2 (stereo partly specified) too.
RESULT: Not fulfilled

---

# key: entry, value: fluorescence ratio
# assay_text: Cy5 fluorescence interference with SSB-bound oligo, artefact control for HCV NS3 helicase inhibitor project, biochemical, NIH Clinical Collection, E. coli SSB (AID 743268)
Respond with the number and no other words.

molecule: O[C@@H]1CCCC[C@H]1N1CCC(c2ccccc2)CC1
reported_value: 0.98

QUERY: What fluorescence ratio value was documented for this molecule, `Clc1ccc(CON=C(Cn2ccnc2)c2ccc(Cl)cc2Cl)c(Cl)c1` ?
RESULT: 0.95

QUERY: Next entry: `COc1cc2c(cc1OC)[C@@]13CCN4CC5=CCO[C@H]6CC(=O)N2[C@H]1[C@H]6[C@H]5C[C@H]43`
RESULT: 0.94

QUERY: Next molecule up: `CN1CC[C@]2(c3cccc(O)c3)Cc3nc4ccccc4cc3C[C@H]2C1`
RESULT: 0.96

QUERY: Param item: COc1cc(N)c(Cl)cc1C(=O)NC1CN2CCC1CC2 (stereo not given)
RESULT: 0.94

QUERY: Repeat for the following molecule: `NCCc1ccccn1`
RESULT: 1

QUERY: Now consider `CC[C@]1(O)CC[C@H]2[C@@H]3CCC4=CCCC[C@@H]4[C@H]3CC[C@@]21C` and answer again.
RESULT: 1.02

---

# System: R275C/beta1
# assay_text: modulators of BK channel variants, profiling panel, selectivity assay, cell-based, U2OS BacMam, thallium flux, beta subunits (AID 1259406);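 note: initial slope of Thallos dye fluorescence rise after thallium is added; log ratio against the mean of 0.3% DMSO vehicle wells on the same plate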
# condition_details: at 30 µM
Grouping key: log fold change Tl+ flux. Bins: low group (below -0.01), middle group (-0.01 to below 0.03), high group (0.03 or more)

Reference set, count: 5
compound: Clc1ccc(CON=C(Cn2ccnc2)c2ccc(Cl)cc2Cl)c(Cl)c1
label_value: high group
--
compound: CC(C)c1cccc(C(C)C)c1O
label_value: low group
--
compound: O=C1CN=C(c2ccccc2)c2cc([N+](=O)[O-])ccc2N1
label_value: low group
--
compound: CNCC(O)c1ccc(O)cc1 (stereo not given)
label_value: middle group
--
compound: CC[C@]1(O)CC[C@H]2[C@@H]3CCC4=CCCC[C@@H]4[C@H]3CC[C@@]21C
label_value: high group

QUERY: Input COC(=O)N1CCN(C(=O)Cc2ccc(Cl)c(Cl)c2)C(CN2CCCC2)C1 (stereo not given) ; output its category
RESULT: high group

QUERY: Entry `COc1ccc2[nH]cc(C3=CCNCC3)c2c1` please
RESULT: high group

QUERY: Now the compound `COc1cccc([C@@]2(O)CCCC[C@@H]2CN(C)C)c1`
RESULT: low group

QUERY: Can you handle `c1ccc2c3c([nH]c2c1)CNCC3` next?
RESULT: low group

QUERY: Note, next up: `Oc1cc2c(cc1O)[C@H]1c3ccccc3CN[C@@H]1CC2`
RESULT: high group

QUERY: Moving on to `C[N+]1(C)CCN(c2ccccc2)CC1`
RESULT: middle group

---

# assay_text: HCT116 colon cancer cell growth inhibition, primary screen, CellTiter-Glo luminescence, NPC library (AID 1117342)
# condition_details: at 20 µM (top of the series)
Active and inactive are the calls of the source.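 Rule for the calls: active = compounds that lower survival of HCT116 colon cancer cells in the luminescence readout, no numeric limit stated; inactive = the rest.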
Respond only with the outcome that fits, drawn from T (active), F (inactive)

Example results:
compound: CC(C)(C)CC(C)(C)c1ccc(O)cc1
label_value: T

compound: CC(C(O)c1ccccc1)N(C)C/C=C/c1ccccc1 (stereo not given)
label_value: T

compound: C=C1C[C@@H]2[C@H](CC[C@]3(C)C(=O)CC[C@@H]23)[C@@]2(C)C=CC(=O)C=C12
label_value: F

compound: CC(Cc1ccccc1)NCc1ccccc1Cl (stereo not given)
label_value: F

compound: O=C(NC(O)C(Cl)(Cl)Cl)NC(O)C(Cl)(Cl)Cl (stereo not given)
label_value: F

compound: CCN(CC)C(=O)N[C@@H]1C=C2c3cccc4[nH]cc(c34)C[C@@H]2N(C)C1
label_value: F

compound: c1cc2c(c(N3CCNCC3)c1)OCCO2
label_value: F

compound: O=C1OC2(c3cc(Br)c(O)cc3Oc3c2cc(Br)c(O)[c]3[Hg])c2ccccc21 (stereo not given)
label_value: T

compound: O=C(CCCN1CCC2(CC1)C(=O)NCN2c1ccccc1)c1ccc(F)cc1
label_value: T

compound: c1ccc2c(c1)OCC(C1=NCCN1)O2 (stereo not given)
label_value: F

QUERY: Hi, sorry to bother you, what did the test record for `CC[C@]1(O)CC[C@H]2[C@@H]3CCC4=CCCC[C@@H]4[C@H]3CC[C@@]21C` ?
RESULT: T

QUERY: Proceed to `CN(C)C(=S)SSC(=S)N(C)C`
RESULT: F

QUERY: Another: `O=[N+]([O-])c1ccc([As](=O)(O)O)cc1`
RESULT: F

QUERY: Another compound to check: `O=C(CCl)c1ccc(Cl)cc1Cl`
RESULT: T

QUERY: Same thing, different compound: `CN1CCN(C(=O)O[C@H]2c3nccnc3C(=O)N2c2ccc(Cl)cn2)CC1`
RESULT: F

QUERY: Request: `C#CCOC(C(=O)OCCN(C)C)(c1ccccc1)c1ccccc1`
RESULT: F

QUERY: And for `Cc1ncsc1CCCl` ?
RESULT: F

QUERY: Same again, this time with CCC1(c2cccc(O)c2)CCCCN(C)C1 (stereo not given)
RESULT: F

QUERY: Entry to check: `CC(=O)OCC1=C(C(=O)O)N2C(=O)[C@@H](N)[C@H]2SC1`
RESULT: F

QUERY: Now give it for `CCCCCCCCCCCCNCCNCCNCC(=O)O` too.
RESULT: T

---

Catalogue of fold change values
# assay_text: sensitizers of A549 cells to miR-34 induction, primary screen, imaging, A549 dox-inducible miR-34, nuclei and caspase counts (AID 1347080)
# condition_details: A549 miR-34 inducible, Hoechst nuclei count, 48 h; measured here: relative caspase fold change +Dox/-Dox
Lab note: record the figure alone, no unit after it.

Consider the following illustrative entries.
compound: C#C[C@]1(O)CC[C@H]2[C@@H]3CCC4=CC(=O)CCC4=C3C=C[C@@]21CC
measurement_label: fold change
reported_value: 1.01

compound: CCCCC/C=C\C/C=C\C/C=C\C/C=C\CCC(C)C(=O)NCCF (stereo not drawn)
measurement_label: fold change
reported_value: 1.21

compound: C[N+]1(C)C2CC(OC(=O)[C@@H](CO)c3ccccc3)CC1C1OC12 (stereo partly drawn)
measurement_label: fold change
reported_value: 1.06

QUERY: Field request: fold change | item: COc1ccc2cc(C(C#N)OC(=O)OCC3OC3c3ccccc3)ccc2c1 (stereo not drawn)
RESULT: 0.565

QUERY: Cool, now `CCCCC/C=C\C/C=C\C/C=C\C/C=C\CCCC(=O)NC(CO)CO`
RESULT: 0.877

QUERY: Similarly, `CN=C(NS(=O)(=O)c1ccc(Cl)cc1)N1C[C@@H](c2ccccc2)C(c2ccc(Cl)cc2)=N1` ?
RESULT: 0.468

QUERY: What do you get for `CCN1C[C@]2(COC(=O)c3ccccc3N3C(=O)C[C@H](C)C3=O)CC[C@H](OC)[C@]34C2[C@H](OC)[C@](O)([C@H]13)[C@@]1(O)C[C@H](OC)[C@H]2C[C@@H]4[C@@H]1[C@H]2OC` ?
RESULT: 0.834

QUERY: Note, next up: `CC(=O)[C@H]1CC[C@H]2[C@@H]3CC[C@H]4C[C@](C)(O)CC[C@]4(C)[C@H]3CC[C@]12C`
RESULT: 1.33

Origin of measurements: PubChem BioAssay
